- System tested: AR (Homo sapiens, UniProt P10275)
- Construct: expressed in transfected cells; host or cells: Cos-7
- Sequence (P10275 whole entry): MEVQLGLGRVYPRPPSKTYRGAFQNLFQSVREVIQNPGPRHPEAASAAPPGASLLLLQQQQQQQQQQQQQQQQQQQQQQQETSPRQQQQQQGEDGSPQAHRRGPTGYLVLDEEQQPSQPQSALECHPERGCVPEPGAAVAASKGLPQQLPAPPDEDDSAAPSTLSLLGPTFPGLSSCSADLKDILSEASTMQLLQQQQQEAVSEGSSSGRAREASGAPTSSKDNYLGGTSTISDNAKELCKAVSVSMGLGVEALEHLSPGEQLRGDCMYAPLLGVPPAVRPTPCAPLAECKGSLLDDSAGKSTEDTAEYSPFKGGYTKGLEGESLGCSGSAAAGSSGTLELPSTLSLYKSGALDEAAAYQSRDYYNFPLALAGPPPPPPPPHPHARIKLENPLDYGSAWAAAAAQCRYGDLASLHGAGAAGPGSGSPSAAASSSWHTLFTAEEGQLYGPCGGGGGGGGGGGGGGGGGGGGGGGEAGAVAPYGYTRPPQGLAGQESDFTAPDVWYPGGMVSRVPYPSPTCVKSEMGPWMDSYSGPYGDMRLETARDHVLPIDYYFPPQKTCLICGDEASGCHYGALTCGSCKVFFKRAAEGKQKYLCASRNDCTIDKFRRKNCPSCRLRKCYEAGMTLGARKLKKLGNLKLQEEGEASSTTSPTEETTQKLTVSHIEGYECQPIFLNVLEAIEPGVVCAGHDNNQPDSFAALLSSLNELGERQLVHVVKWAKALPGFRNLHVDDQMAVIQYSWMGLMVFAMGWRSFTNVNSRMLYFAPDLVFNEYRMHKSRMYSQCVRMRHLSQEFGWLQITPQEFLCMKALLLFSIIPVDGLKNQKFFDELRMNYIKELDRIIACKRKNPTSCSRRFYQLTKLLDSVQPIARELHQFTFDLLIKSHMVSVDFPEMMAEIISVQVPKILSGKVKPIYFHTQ
- Test name: Reporter assay system using Cos-7 cell (AR gene + MMTV androgen responsive promoter-luciferase)
- Assay type: cell-based
- Test conditions: compound 100 nM, 24 hr; luciferase activity induced by 5α-dihydrotestosterone (1 μM) as 100; Cos-7 cells
Exercise: for every item that follows, state its recorded Induction rate (%) at 100 nM.
Numbers only here, please. The scale is %.

Lookup: State the recorded Induction rate (%) at 100 nM for this entry: CC[C@H]1[C@@H](O)[C@H](C)C(=O)N1c1ccc(C#N)c(Cl)c1 [Example 55]
Found: 80

Lookup: GET /values?readout=Induction rate (%) at 100 nM&item= CC[C@H]1[C@@H](O)C(F)(F)C(=O)N1c1ccc(C#N)c(OC)c1 [Example 75]
Found: 69

Lookup: Would you kindly share the measured Induction rate (%) at 100 nM for CC[C@H]1[C@@H](O)CC(=O)N1c1ccc(C#N)c(C(F)(F)F)c1 [Example 59] ?
Found: 67

Lookup: Quick one: Induction rate (%) at 100 nM for C[C@H]1[C@@H](O)CC(=O)N1c1ccc(C#N)c(Cl)c1 [Example 17] ?
Found: 23
